In this section, each of the compounds is paired with its reported pEC50.
- Target or system: Extracellular calcium-sensing receptor (Homo sapiens)
- Sequence (P41180 whole entry): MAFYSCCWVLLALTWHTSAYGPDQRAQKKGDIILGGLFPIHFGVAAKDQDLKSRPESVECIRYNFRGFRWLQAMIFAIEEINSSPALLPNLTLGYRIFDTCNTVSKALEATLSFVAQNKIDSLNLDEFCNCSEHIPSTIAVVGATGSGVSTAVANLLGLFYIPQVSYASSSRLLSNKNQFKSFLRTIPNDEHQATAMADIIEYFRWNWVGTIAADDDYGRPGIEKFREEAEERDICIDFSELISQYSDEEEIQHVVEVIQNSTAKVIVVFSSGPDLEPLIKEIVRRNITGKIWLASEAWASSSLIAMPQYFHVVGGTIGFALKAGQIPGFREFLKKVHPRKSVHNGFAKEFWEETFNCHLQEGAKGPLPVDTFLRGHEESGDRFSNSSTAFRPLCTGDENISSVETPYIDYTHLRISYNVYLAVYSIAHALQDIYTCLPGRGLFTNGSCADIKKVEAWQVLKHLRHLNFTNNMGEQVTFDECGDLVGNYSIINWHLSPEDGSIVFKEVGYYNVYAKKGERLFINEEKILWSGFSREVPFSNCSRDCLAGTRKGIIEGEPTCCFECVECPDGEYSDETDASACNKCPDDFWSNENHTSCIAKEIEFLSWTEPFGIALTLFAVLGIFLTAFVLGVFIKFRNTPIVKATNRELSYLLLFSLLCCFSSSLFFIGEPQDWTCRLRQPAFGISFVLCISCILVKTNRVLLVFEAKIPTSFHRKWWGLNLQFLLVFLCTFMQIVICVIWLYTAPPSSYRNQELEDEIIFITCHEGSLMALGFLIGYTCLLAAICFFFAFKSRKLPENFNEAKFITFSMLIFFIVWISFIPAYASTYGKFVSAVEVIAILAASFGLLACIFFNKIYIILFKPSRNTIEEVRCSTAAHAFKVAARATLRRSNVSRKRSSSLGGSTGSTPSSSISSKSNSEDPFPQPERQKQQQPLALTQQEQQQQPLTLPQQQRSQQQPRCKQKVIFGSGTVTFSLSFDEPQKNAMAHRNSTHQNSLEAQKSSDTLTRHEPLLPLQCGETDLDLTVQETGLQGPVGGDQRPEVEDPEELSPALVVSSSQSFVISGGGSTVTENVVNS
- Assay protocol: Activity at human CaSR expressed in HEK293 cells assessed as calcium release by FLIPR assay
Would you please state pEC50, meaning minus log10 of the concentration in mol/L, as a bare number?

Answered examples (6):
> print(dat)
                                   compound  readout.kind  endpoint.value
1  COc1cc([C@@H](C)N[C@H](C)c2cccc(Cl)c2)nn1-c1ccc(C(=O)O)cc1         pEC50            5.72
2  COc1cc([C@@H](C)N[C@H](C)c2ccccc2)nn1-c1ccc(C(F)(F)F)cc1         pEC50            7.15
3  CC(C)[C@@H](N[C@H](C)c1ccccc1)c1ccn(-c2ccc(C(F)(F)F)cc2)n1         pEC50            5.63
4  C[C@@H](N[C@H](C)c1ccn(-c2ccc(C(F)(F)F)cc2)n1)c1cccc(Cl)c1         pEC50            7.04
5  C[C@@H](N[C@H](C)c1ccn(-c2ccc(C(F)(F)F)cc2)n1)c1ccccc1         pEC50            6.63
6  COc1cc([C@@H](C)N[C@H](C)c2cccc(Cl)c2)nn1-c1ccc(C(F)(F)F)cc1         pEC50            7.39

Please find the next compound below.
Please give the measured pEC50 for this compound: COc1cc([C@@H](C)N[C@H](C)c2cccc(Cl)c2)nn1-c1cccc(Cl)c1 7.24

----------
- Assay protocol: Volume of distribution at steady state in Sprague-Dawley rat at 0.5 mg/kg, iv
- Type: ADME, organism-based
- Set-up: dose 0.5 mg/kg, route intravenous
- Particulars: in vivo, read-out: Vdss
In this section, each of the compounds is paired with its reported Vd.
Entry rule: numbers only, all in L/kg.

> print(dat)
                                   compound  endpoint.value
1  COc1cccc([C@@H](C)NCCCc2ccccc2Cl)c1 [TECALCET]             6.8

Please find the next compound below.
Please give the measured Vd for this compound: COc1cc([C@@H](C)N[C@H](C)c2cccc(Cl)c2)nn1-c1ccc(Br)cc1 7

----------
In this section, each of the compounds is paired with its reported EC50.
- Target or system: Extracellular calcium-sensing receptor (Homo sapiens, UniProt P41180)
- Assay protocol: Activity at human CaSR expressed in HEK293 cells assessed as calcium release by FLIPR assay
Entry rule: numbers only, all in nM.

> print(dat)
                                   compound  units.symbol  endpoint.value
1  C[C@@H](N[C@H](C)c1ccn(-c2ccc(C(F)(F)F)cc2)n1)c1cccc(F)c1            nM             148

Please give the measured EC50 for this compound: CC[C@@H](N[C@H](C)c1ccccc1)c1ccn(-c2ccc(C(F)(F)F)cc2)n1 1180

Please give the measured EC50 for this compound: COc1cc([C@@H](C)N[C@H](C)c2cccc(Cl)c2)nn1-c1ccc(Br)cc1 23

Please give the measured EC50 for this compound: C[C@@H](NCc1ccn(-c2ccccc2)n1)c1ccccc1 1580

Please give the measured EC50 for this compound: COc1cccc([C@@H](C)NCCCc2ccccc2Cl)c1 [TECALCET] 194

----------
In this section, each of the compounds is paired with its reported AUC.
- Test system: Rattus norvegicus
- Assay protocol: AUC in Sprague-Dawley rat at 2 mg/kg, po
- Assay type: ADME, organism-based, Plasma
- Parameters: dose 2 mg/kg, route oral
- Particulars: in vivo

> print(dat)
                              compound  endpoint.value
1  COc1cccc([C@@H](C)NCCCc2ccccc2Cl)c1      22 ng·h/mL

Please find the next compound below.
What reported AUC corresponds to COc1cc([C@@H](C)N[C@H](C)c2cccc(Cl)c2)nn1-c1ccc(Br)cc1 on Rattus norvegicus? 444 ng·h/mL

----------
- Target or system: Extracellular calcium-sensing receptor (Homo sapiens, UniProt P41180)
- Assay protocol: Activity at human CaSR expressed in HEK293 cells assessed as calcium release by FLIPR assay
Readout kind: EC50

Answered examples (2):
> print(dat)
                                   compound  endpoint.value
1    C[C@@H](NCc1nc(-c2ccccc2)cn1C)c1ccccc1          > 5 µM
2  C[C@@H](NCc1nc(-c2ccccc2)c[nH]1)c1ccccc1          > 5 µM

Please find the next compound below.
What reported EC50 corresponds to C[C@@H](NCc1cnc(-c2ccccc2)s1)c1ccccc1 on Extracellular calcium-sensing receptor (Homo sapiens, UniProt P41180)? > 5 µM

----------
In this section, each of the compounds is paired with its reported pEC50.
- Target or system: Extracellular calcium-sensing receptor (Homo sapiens)
- Assay protocol: Activity at human CaSR expressed in HEK293 cells assessed as calcium release by FLIPR assay
pEC50: −log10 of the molar value.

Answered examples (2):
> print(dat)
                                compound  endpoint.value
1  C[C@@H](NCc1nc(-c2ccccc2)cs1)c1ccccc1          < 5.30
2  C[C@@H](NCc1nc(-c2ccccc2)co1)c1ccccc1          < 5.30

What reported pEC50 corresponds to COc1cc([C@@H](C)N[C@H](C)c2cccc(Cl)c2)nn1-c1ccc(-c2nnn[nH]2)cc1 on Extracellular calcium-sensing receptor (Homo sapiens)? < 5.30

Data provenance is ChEMBL document CHEMBL1154628.
